Entries and their RP-LC retention time
assay: gradient 5% acetonitrile 3 min, to 50% in 2 min, to 85% in 15 min, held 3 min, 100 µL/min
test-context: column: Zorbax Extend-C18 2.1 x 50 mm; eluents: water / acetonitrile, 0.1% formic acid

[
  {
    "compound-structure-string": "CC(C)NC(=O)N1C[C@@H]2CCCN3CCC[C@@H]([C@H]23)[C@H]1CCCC(=O)NCC1CC1",
    "RP-LC retention time [s]": 578
  },
  {
    "compound-structure-string": "CCN(CC)c1ncnc2c(-c3ccccc3)cn(CC(=O)NCCc3ccc(OC)c(OC)c3)c12",
    "RP-LC retention time [s]": 726
  },
  {
    "compound-structure-string": "C=CCn1c(C(=O)N2CCN(c3ccccn3)CC2)cc2cc(S(=O)(=O)N(C)C)ccc21",
    "RP-LC retention time [s]": 649
  },
  {
    "compound-structure-string": "O=C(c1cccs1)N1CCc2ccc(NS(=O)(=O)C3CCCCC3)cc21",
    "RP-LC retention time [s]": 892
  }
]

====

assay: gradient 5% acetonitrile 3 min, to 50% in 2 min, to 85% in 15 min, held 3 min, 100 µL/min
test-context: column: Zorbax Extend-C18 2.1 x 50 mm; eluents: water / acetonitrile, 0.1% formic acid

[
  {
    "molecule": "Cc1nnc(N2CCC(C(=O)N3CCOCC3)CC2)c2nn(-c3ccc(Cl)cc3)c(C)c12",
    "RP-LC retention time": "669 s"
  },
  {
    "molecule": "CCC1CCCCN1C(=O)c1cnc2nc(C)ccc2c1Nc1cc(Cl)ccc1OC (stereo not given)",
    "RP-LC retention time": "731 s"
  },
  {
    "molecule": "COCc1ncc(C)n1CCNC(=O)Nc1ccsc1C(=O)OC",
    "RP-LC retention time": "615 s"
  },
  {
    "molecule": "CCCN1CCN(C(=O)CC2CCN(C(=O)c3[nH]c(C)c(C(=O)OC(C)C)c3C)CC2)CC1",
    "RP-LC retention time": "624 s"
  },
  {
    "molecule": "O=C(C1=NN(Cc2cccc(F)c2)c2cc(Cl)ccc2S1(=O)=O)N1CCOCC1",
    "RP-LC retention time": "904 s"
  },
  {
    "molecule": "CCN1C(=O)c2cccnc2Sc2cc(CNC(=O)c3cccc(OC)c3)ccc21",
    "RP-LC retention time": "762 s"
  },
  {
    "molecule": "CCOc1ccccc1NC(=O)CSc1ccc(N2CCCC(C(=O)NC3CC3)C2)nn1 (stereo not given)",
    "RP-LC retention time": "705 s"
  },
  {
    "molecule": "CCN1CCN(C(=O)Cc2ccc(Nc3ncc(F)c(Nc4ccc(C(=O)Nc5ccccc5Cl)cc4)n3)cc2)CC1",
    "RP-LC retention time": "684 s"
  },
  {
    "molecule": "CN(C)CCNC(=O)c1ccc(-c2ccnc(N3CCCC3)n2)cc1",
    "RP-LC retention time": "560 s"
  },
  {
    "molecule": "Cc1nc(CCNC(=O)C2CCN(S(=O)(=O)c3ccc(Cl)cc3)CC2)cs1",
    "RP-LC retention time": "755 s"
  },
  {
    "molecule": "Cc1cc(C)n2nc(SCC(=O)NCCC(C)C)nc2n1",
    "RP-LC retention time": "690 s"
  },
  {
    "molecule": "CCCCc1c(-c2ccc(OC)cc2)[nH]c2nccnc12",
    "RP-LC retention time": "912 s"
  },
  {
    "molecule": "CCOC(=O)c1cccc(N2C=C(C(=O)OC)S(=O)(=O)c3ccccc32)c1",
    "RP-LC retention time": "858 s"
  },
  {
    "molecule": "Nc1nnc(-c2ccc(Br)cc2)o1",
    "RP-LC retention time": "647 s"
  },
  {
    "molecule": "CCC(C)NC(=O)c1ccc2ccnc(N3CCN(c4ccc(F)cc4)CC3)c2c1 (stereo not given)",
    "RP-LC retention time": "785 s"
  },
  {
    "molecule": "CCOCCCNC(=O)N1CCN(c2nc3ccccc3n3cccc23)CC1",
    "RP-LC retention time": "618 s"
  },
  {
    "molecule": "Cn1nccc1-c1cccc(-c2noc(-c3cc(F)ccc3Cl)n2)c1",
    "RP-LC retention time": "1190 s"
  },
  {
    "molecule": "Cc1cc(Cl)ccc1S(=O)(=O)NCCn1c(C)cnc1C1CCC1",
    "RP-LC retention time": "592 s"
  },
  {
    "molecule": "COC(=O)c1[nH]c(C)c(C(=O)C(C)N(CC2CCCCC2)C(=O)c2ccccc2)c1C (stereo not given)",
    "RP-LC retention time": "1050 s"
  },
  {
    "molecule": "O=C(OC1C[C@@H]2CC3C[C@@H](C1)N2CC3=O)c1c[nH]c2ccccc12 (stereo not given in full)",
    "RP-LC retention time": "638 s"
  }
]
